So I've got pKi readings for Proto-oncogene tyrosine-protein kinase Src (Homo sapiens), take a look.
In textbook form, pKi equals minus log to base ten of the concentration in mol/L.

| molecule | pKi |
| --- | --- |
| CC(O)[C@H]1C2CCC(CC2)[C@@H]1Nc1nc(-c2c[nH]c3ncc(F)cc23)ncc1F (mixture of isomers) | 6.01 |

Exercise: Give the measured pKi for CS(=O)(=O)[C@H]1C2CCC(CC2)[C@@H]1Nc1nc(-c2c[nH]c3ncc(F)cc23)ncc1F (mixture of isomers)
Solution: 5.51

---

Reported Ki values for the following compounds.
# system: Glycogen synthase kinase-3 (Homo sapiens, UniProt P49840+P49841)
# assay remarks: Inhibition of GSK3 (unknown origin)
# Format: protein assay

Observe how each entry below is paired with its result.
| compound | Ki |
| --- | --- |
| O=c1nc([C@H]2C3CCC(CC3)[C@@H]2Nc2nc(-c3c[nH]c4ncc(F)cc34)ncc2F)[nH]o1 (mixture of isomers) | > 4 µM |
| Fc1cnc2[nH]cc(-c3ncc(F)c(N[C@H]4C5CCC(CC5)[C@@H]4c4nnn[nH]4)n3)c2c1 (mixture of isomers) | > 4 µM |

Here is another compound to look at.
Exercise: Give the measured Ki for O=P(O)(O)[C@H]1C2CCC(CC2)[C@@H]1Nc1nc(-c2c[nH]c3ncc(F)cc23)ncc1F (mixture of isomers)
Solution: > 4 µM

Provenance of the data: ChEMBL document CHEMBL3399966
